target.under.test: Integrin alpha2/beta1 (Homo sapiens, UniProt P05556+P17301)
Sequence (P05556 whole entry): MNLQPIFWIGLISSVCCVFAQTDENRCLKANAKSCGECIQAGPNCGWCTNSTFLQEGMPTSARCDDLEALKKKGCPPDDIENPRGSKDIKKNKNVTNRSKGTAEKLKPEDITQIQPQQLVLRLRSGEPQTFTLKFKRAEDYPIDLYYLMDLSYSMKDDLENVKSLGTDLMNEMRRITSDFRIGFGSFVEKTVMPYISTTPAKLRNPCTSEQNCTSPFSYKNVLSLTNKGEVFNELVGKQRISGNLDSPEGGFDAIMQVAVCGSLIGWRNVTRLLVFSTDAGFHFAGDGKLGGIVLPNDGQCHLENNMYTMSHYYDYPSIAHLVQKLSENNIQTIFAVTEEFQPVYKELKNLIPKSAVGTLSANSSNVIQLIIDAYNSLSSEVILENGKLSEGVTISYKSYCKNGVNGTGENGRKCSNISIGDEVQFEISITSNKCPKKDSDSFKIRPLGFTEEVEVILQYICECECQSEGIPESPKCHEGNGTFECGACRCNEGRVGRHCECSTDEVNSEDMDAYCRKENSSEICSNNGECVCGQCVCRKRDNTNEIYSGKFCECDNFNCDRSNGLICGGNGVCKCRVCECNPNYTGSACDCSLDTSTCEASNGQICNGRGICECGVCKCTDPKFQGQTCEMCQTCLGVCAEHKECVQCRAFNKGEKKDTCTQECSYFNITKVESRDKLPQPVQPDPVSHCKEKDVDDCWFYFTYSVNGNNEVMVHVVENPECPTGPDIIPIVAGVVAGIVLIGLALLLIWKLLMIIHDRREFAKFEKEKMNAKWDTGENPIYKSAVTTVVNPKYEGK
Sequence (P17301 whole entry): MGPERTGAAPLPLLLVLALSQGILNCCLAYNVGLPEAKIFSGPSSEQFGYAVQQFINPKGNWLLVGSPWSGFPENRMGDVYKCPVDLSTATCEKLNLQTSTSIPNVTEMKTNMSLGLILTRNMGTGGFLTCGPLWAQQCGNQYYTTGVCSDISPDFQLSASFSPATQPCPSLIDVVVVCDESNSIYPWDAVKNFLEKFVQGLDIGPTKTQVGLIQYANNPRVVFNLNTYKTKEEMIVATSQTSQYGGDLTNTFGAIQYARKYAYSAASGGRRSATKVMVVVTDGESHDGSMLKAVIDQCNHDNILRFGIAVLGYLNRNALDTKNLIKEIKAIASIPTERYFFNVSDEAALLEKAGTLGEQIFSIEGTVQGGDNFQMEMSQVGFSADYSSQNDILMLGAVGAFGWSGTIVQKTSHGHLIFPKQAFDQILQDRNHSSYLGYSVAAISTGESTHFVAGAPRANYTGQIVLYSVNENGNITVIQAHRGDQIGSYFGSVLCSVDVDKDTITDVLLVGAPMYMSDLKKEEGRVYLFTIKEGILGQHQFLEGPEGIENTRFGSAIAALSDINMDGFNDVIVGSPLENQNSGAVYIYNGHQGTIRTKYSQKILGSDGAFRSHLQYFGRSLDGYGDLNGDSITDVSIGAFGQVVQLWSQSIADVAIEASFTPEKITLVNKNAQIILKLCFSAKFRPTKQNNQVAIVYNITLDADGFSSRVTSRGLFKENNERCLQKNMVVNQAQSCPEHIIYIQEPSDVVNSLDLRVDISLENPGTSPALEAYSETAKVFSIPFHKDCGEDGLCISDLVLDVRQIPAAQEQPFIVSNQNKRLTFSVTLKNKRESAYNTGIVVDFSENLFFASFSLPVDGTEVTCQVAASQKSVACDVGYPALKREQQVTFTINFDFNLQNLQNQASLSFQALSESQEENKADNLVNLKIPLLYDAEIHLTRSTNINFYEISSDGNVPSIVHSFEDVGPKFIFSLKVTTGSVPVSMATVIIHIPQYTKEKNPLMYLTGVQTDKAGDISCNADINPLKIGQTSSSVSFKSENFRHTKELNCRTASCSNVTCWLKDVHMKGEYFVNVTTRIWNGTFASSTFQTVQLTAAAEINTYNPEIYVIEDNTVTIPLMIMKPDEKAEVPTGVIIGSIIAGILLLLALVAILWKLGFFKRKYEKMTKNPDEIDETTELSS
procedure.text: Antagonist activity at alpha2beta1 integrin receptor (unknown origin) by cell-free ELISA
pIC50: −log10 of the molar value.
Consider the following compounds; for each one, report its pIC50.

In [3]: df
Out[3]:
                                   compound                         target_under_test  result
0  COc1ccc(S(=O)(=O)N[C@@H](CNc2nc(C)nc(N3CCC(c4ccc5c(n4)NCCC5)CC3)c2C)C(=O)O)cc1  Integrin alpha2/beta1 (Homo sapiens, UniProt P05556+P17301)  < 5.00

Q. Please look at this compound and report its pIC50: CC(C)(C)c1cc(Br)cc([C@H](CC(=O)O)NC(=O)CNC(=O)c2cc(O)cc(NC3=NCC(O)CN3)c2)c1 (some centres not stated)
A. < 5.30
